Cited source for all entries: ChEMBL document CHEMBL3091324

- subject_of_test: Cell division cycle 7-related protein kinase (Homo sapiens, UniProt O00311)
- Sequence (O00311 whole entry): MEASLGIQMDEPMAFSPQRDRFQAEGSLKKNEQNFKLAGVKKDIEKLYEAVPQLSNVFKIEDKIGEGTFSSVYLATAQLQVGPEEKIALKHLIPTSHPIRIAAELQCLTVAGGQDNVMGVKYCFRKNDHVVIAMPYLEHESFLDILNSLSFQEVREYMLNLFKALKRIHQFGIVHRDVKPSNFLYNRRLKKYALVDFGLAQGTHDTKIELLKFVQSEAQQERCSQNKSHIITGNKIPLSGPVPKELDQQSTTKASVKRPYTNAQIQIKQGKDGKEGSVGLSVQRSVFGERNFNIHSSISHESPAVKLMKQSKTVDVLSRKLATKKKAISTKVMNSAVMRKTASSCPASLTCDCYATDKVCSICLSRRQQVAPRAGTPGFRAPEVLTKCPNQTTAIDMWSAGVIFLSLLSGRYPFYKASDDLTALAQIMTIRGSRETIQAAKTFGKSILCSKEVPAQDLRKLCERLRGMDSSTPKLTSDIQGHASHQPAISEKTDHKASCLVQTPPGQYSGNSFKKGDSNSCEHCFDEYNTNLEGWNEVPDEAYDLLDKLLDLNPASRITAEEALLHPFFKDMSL
- assay_text: Inhibition of Cdc7-mediated MCM2 phosphorylation at Ser53 in human HCT116 cells after 14 hrs by immunostaining assay
pIC50: −log10 of the molar value.
assay_endpoint: pIC50

Ask: Lookup: pIC50 / Cell division cycle 7-related protein kinase (Homo sapiens, UniProt O00311) / `Fc1ccc2c(-c3nnc(N[C@@H](c4cccnc4F)C4CC4)o3)c[nH]c2n1`
Result: 6.60

1: Fc1cnccc1[C@H](Nc1nnc(-c2c[nH]c3ncccc23)o1)C1CC1
2: c1cncc(CNc2nnc(-c3c[nH]c4ncccc34)o2)c1
Ask: In the pair 1 and 2 , the larger recorded pIC50 belongs to which? The response must carry the label of the picked entry.
Result: 1
(1: 7.22, 2: 5.15)
